Sourced from patent US10160867B2

System: Alternaria alternata
Assay: Fungus resistance test for painted surfaces containing antifungal additives (defacement rating)
Type: cell-based
Design: key: 10 = no defacement, 0 = completely defaced
Details: +100 μg/mL in Olympic Home paint; 14 days
Label t when Average defacement rating ± standard deviation >= 0.5; otherwise f.

// known answers, use as guide
# Compound, Classification
measured = [
    ("OB1OCc2cc(F)ccc21", "t"),
    ("OB1OCc2cc(Cl)ccc21", "t"),
    ("CCCCNC(=O)OCC#CI [IPBC, 3-Iodo-2-propynylbutylcarbamate]", "t"),
    ("CCCCCCCCn1sccc1=O", "t"),
    ("O=C1C2CC=CCC2C(=O)N1SC(Cl)(Cl)Cl (stereo not drawn)", "f"),
    ("c1ccc2[nH]c(-c3cscn3)nc2c1", "f"),
]

Exam item: decide whether the reported Average defacement rating ± standard deviation for Oc1cc(Cl)ccc1Oc1ccc(Cl)cc1Cl is at least 0.5.
f

----------
Tested on: Penicillium brevicompactum
Assay: 3 day MIC, broth microdilution in 25% PDB
Type: cell-based
Conditions: 72 h, 25% PDB, read-out: 3 day MIC
Quantity Kind: MIC (µg/mL)
# number only, unit µg/mL dropped from output

Answered examples (4):
# Molecule, MIC, µg/mL
data = [
    ("N#Cc1ccc2c(c1)COB2O", 50),
    ("c1ccc2[nH]c(-c3cscn3)nc2c1", 0.4),
    ("OB1OCc2cc(Cl)ccc21", 0.4),
    ("O=C1C2CC=CCC2C(=O)N1SC(Cl)(Cl)Cl (centres unmarked)", 0.78),
]

Pending molecule:
Would you kindly share the measured MIC for OB1OCc2cc(F)ccc21 ?
0.2

----------
System: Alternaria alternata
Experiment: Fungus resistance test after painting over fungal growth (defacement rating)
Format: cell-based
Conditions: painted over fungal growth; +100 μg/mL in Olympic Home paint; 21 days
# Average defacement rating ± standard deviation per entry

Answered examples (3):
# Compound, Tested System, Reported Result
records = [
    ("c1ccc2[nH]c(-c3cscn3)nc2c1 [Thiabendazole]", "Alternaria alternata", "0.0 ± 0.0 (6)"),
    ("O=C1C2CC=CCC2C(=O)N1SC(Cl)(Cl)Cl (centres unmarked) [Captan]", "Alternaria alternata", "2.4 ± 3.8 (9)"),
    ("OB1OCc2cc(Cl)ccc21 [Compound B8]", "Alternaria alternata", "3.0 ± 2.8 (9)"),
]

Would you kindly share the measured Average defacement rating ± standard deviation for OB1OCc2cc(F)ccc21 [Compound B9] ?
4.6 ± 2.2 (12)

Queued: OB1OCc2ccccc21 [Compound B0]
0.4 ± 0.6 (6)

Queued: CCCCCCCCn1sccc1=O [OIT, 2-Octyl-4-isothiazolin-3-one]
0.0 ± 0.0 (6)

Queued: CCCCNC(=O)OCC#CI [IPBC, 3-Iodo-2-propynylbutylcarbamate]
3.0 ± 2.5 (9)

Queued: Oc1cc(Cl)ccc1Oc1ccc(Cl)cc1Cl [Triclosan, triclosan]
2.0 ± 2.9 (9)

----------
System: Stachybotrys chartarum
Experiment: Fungus resistance test for painted surfaces containing antifungal additives (defacement rating)
Type: cell-based
Parameters: key: 10 = no defacement, 0 = completely defaced
Settings: +100 μg/mL in Olympic Home paint; 7 days
Description: A Defacement Rating is measured by estimating the percentage of surface defacement with 10 being no defacement and 0 begin completely defaced. This test was used to evaluate the resistance of paint films containing antifungal additives to surface fungal growth. […] The paint coatings were evaluated against three representative cellulose-supportable fungi: Stachybotrys chartarum, Penicillium chrysogenum, and Alternaria alternata. […]
Label Fulfilled when Average defacement rating ± standard deviation >= 6; otherwise Not fulfilled.

# Compound, Classification
measured = [
    ("OB1OCc2cc(Cl)ccc21 [Compound B8]", "Fulfilled"),
    ("O=C1C2CC=CCC2C(=O)N1SC(Cl)(Cl)Cl (stereo not drawn) [Captan]", "Not fulfilled"),
    ("OB1OCc2ccccc21 [Compound B0]", "Not fulfilled"),
    ("CCCCCCCCn1sccc1=O [OIT, 2-Octyl-4-isothiazolin-3-one]", "Fulfilled"),
    ("c1ccc2[nH]c(-c3cscn3)nc2c1 [Thiabendazole]", "Not fulfilled"),
]

Exam item: decide whether the reported Average defacement rating ± standard deviation for N#Cc1c(Cl)c(Cl)c(Cl)c(C#N)c1Cl [Chlorothalonil, chlorothalonil] is at least 6.
Not fulfilled

----------
Test system: Alternaria alternata
Experiment: Fungus resistance test after painting over fungal growth (defacement rating)
Format: cell-based
Conditions: painted over fungal growth; +100 μg/mL in Olympic Home paint; 14 days
Quantity Kind: Average defacement rating ± standard deviation

Would you kindly share the measured Average defacement rating ± standard deviation for c1ccc2[nH]c(-c3cscn3)nc2c1 [Thiabendazole] ?
0.0 ± 0.0 (6)

----------
Tested on: Alternaria alternata
Assay: Fungus resistance test for painted surfaces containing antifungal additives (defacement rating)
Format: cell-based
Parameters: key: 10 = no defacement, 0 = completely defaced
Conditions: +100 μg/mL in Olympic Home paint; 21 days
Quantity Kind: Average defacement rating ± standard deviation
Give your answer as a number; write no unit.

Would you kindly share the measured Average defacement rating ± standard deviation for OB1OCc2cc(F)ccc21 ?
3.8

----------
Tested on: Stachybotrys chartarum
Assay: Fungus resistance test for painted surfaces containing antifungal additives (defacement rating)
Format: cell-based
Design: key: 10 = no defacement, 0 = completely defaced
Conditions: +100 μg/mL in Olympic Home paint; 7 days
Quantity Kind: Average defacement rating ± standard deviation
Give your answer as a number; write no unit.

# Molecule, Tested System, Reported Result
records = [
    ("CCCCNC(=O)OCC#CI [IPBC, 3-Iodo-2-propynylbutylcarbamate]", "Stachybotrys chartarum", 9.9),
    ("Oc1cc(Cl)ccc1Oc1ccc(Cl)cc1Cl", "Stachybotrys chartarum", 0.8),
]

Pending molecule:
What measured Average defacement rating ± standard deviation is associated with OB1OCc2cc(F)ccc21 on Stachybotrys chartarum?
9.9

----------
System: Penicillium chrysogenum
Assay: 3 day MIC, broth microdilution in 25% PDB
Format: cell-based
Conditions: 72 h, 25% PDB, read-out: 3 day MIC
# MIC per entry

Answered examples (2):
# Query Smiles, Tested System, MIC
rows = [
    ("N#Cc1c(Cl)c(Cl)c(Cl)c(C#N)c1Cl", "Penicillium chrysogenum", "< 0.1 µg/mL"),
    ("CCCCCCCCn1sccc1=O", "Penicillium chrysogenum", "< 0.1 µg/mL"),
]

Pending compound:
Would you kindly share the measured MIC for O=C(O)c1ccc2c(c1)COB2O ?
> 200 µg/mL

----------
# MIC per entry
System: Penicillium brevicompactum
Assay: 3 day MIC, broth microdilution in 25% PDB
Format: cell-based
Details: 72 h, 25% PDB, read-out: 3 day MIC

Answered examples (2):
# Molecule, MIC
measured = [
    ("CCCCCCCCn1sccc1=O [OIT, 2-Octyl-4-isothiazolin-3-one]", "< 0.1 µg/mL"),
    ("N#Cc1c(Cl)c(Cl)c(Cl)c(C#N)c1Cl [Chlorothalonil, chlorothalonil]", "< 0.1 µg/mL"),
]

Pending molecule:
Would you kindly share the measured MIC for O=C(O)c1ccc2c(c1)COB2O [Compound B10] ?
> 200 µg/mL

----------
System: Alternaria alternata
Assay: Fungus resistance test after painting over fungal growth (defacement rating)
Type: cell-based
Details: painted over fungal growth; +100 μg/mL in Olympic Home paint; 14 days
Procedure: In this series of experiments, fungal growth was allowed to cover a painted surface (surface containing 2 coats of the unaltered paint) to a defacement rating of 3-5, forming a ‘contaminated surface’. […] The paint application was extended approximately 1-2 cm beyond the edge of the disc onto the NSA medium. […] The paint coatings were evaluated against three representative fungi: Stachybotrys chartarum, Penicillium chrysogenum, and Alternaria alternata. […]
Quantity Kind: Average defacement rating ± standard deviation

Answered examples (5):
# Molecule, Reported Result
rows = [
    ("OB1OCc2ccccc21 [Compound B0]", "1.0 ± 1.3 (6)"),
    ("Oc1cc(Cl)ccc1Oc1ccc(Cl)cc1Cl [Triclosan, triclosan]", "2.6 ± 3.7 (9)"),
    ("CCCCCCCCn1sccc1=O [OIT, 2-Octyl-4-isothiazolin-3-one]", "0.0 ± 0.0 (6)"),
    ("OB1OCc2cc(F)ccc21 [Compound B9]", "5.1 ± 2.1 (12)"),
    ("OB1OCc2cc(Cl)ccc21 [Compound B8]", "3.4 ± 2.9 (9)"),
]

Would you kindly share the measured Average defacement rating ± standard deviation for O=C1C2CC=CCC2C(=O)N1SC(Cl)(Cl)Cl (stereo not shown) [Captan] ?
2.5 ± 4.0 (9)

Queued: CCCCNC(=O)OCC#CI [IPBC, 3-Iodo-2-propynylbutylcarbamate]
3.1 ± 2.4 (9)

----------
# Average defacement rating ± standard deviation per entry
System: Alternaria alternata
Experiment: Fungus resistance test for painted surfaces containing antifungal additives (defacement rating)
Assay type: cell-based
Set-up: key: 10 = no defacement, 0 = completely defaced
Conditions: +100 μg/mL in Olympic Home paint; 21 days
Give your answer as a number; write no unit.

# Compound, Reported Result
data = [
    ("O=C1C2CC=CCC2C(=O)N1SC(Cl)(Cl)Cl (centres unmarked)", 0.0),
    ("c1ccc2[nH]c(-c3cscn3)nc2c1", 0.0),
    ("CCCCCCCCn1sccc1=O", 4.9),
    ("N#Cc1c(Cl)c(Cl)c(Cl)c(C#N)c1Cl", 0.5),
]

What measured Average defacement rating ± standard deviation is associated with CCCCNC(=O)OCC#CI [IPBC, 3-Iodo-2-propynylbutylcarbamate] on Alternaria alternata?
7.5

Queued: OB1OCc2cc(Cl)ccc21
7.8

Queued: Oc1cc(Cl)ccc1Oc1ccc(Cl)cc1Cl
0.0

Queued: OB1OCc2ccccc21
0.0
